# experimental.target: c-Src SH2;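 also: peptide library displayed on the E. coli surface as eCPX fusions, selected cells deep-sequenced, score is each peptide's frequency after selection divided by its frequency in the input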
# assay.explanation: SH2 binding enrichment of the phosphorylated peptide, bacterial display (enrichment ratio); higher = better substrate or ligand; peptides without Tyr show the background
Below, each entry is listed alongside its reported SH2 binding enrichment.
Just the number, please, no unit attached.

The examples below pair each entry with its known result.
Look at this sequence and give its reported SH2 binding enrichment. TDDMRYPMKSE [TGDS_Y302_N298D]
0.439

Look at this sequence and give its reported SH2 binding enrichment. PEYVVYKPQME [CCRL2_Y170_F167Y]
0.439

Look at this sequence and give its reported SH2 binding enrichment. VNKIYHPDFIV [LIG3_Y768_Y768H]
0.529

Continuing:
Look at this sequence and give its reported SH2 binding enrichment. FFCRWYRNRKS [EREG_Y144_YF]
0.516

Look at this sequence and give its reported SH2 binding enrichment. STSFDYCRVPM [BST2_Y8_YF]
0.558

Look at this sequence and give its reported SH2 binding enrichment. SSTAMYSAAGR [PSMB1_Y8_P11A]
0.774

Look at this sequence and give its reported SH2 binding enrichment. GPGLVYRVANK [FLNB_Y1833_G1834R]
0.499

Look at this sequence and give its reported SH2 binding enrichment. AGNPAYRSFSN [IL4R_Y497]
0.431

Look at this sequence and give its reported SH2 binding enrichment. PRAEWYRDDLL [MYOM2_Y317_V321L]
0.686

Look at this sequence and give its reported SH2 binding enrichment. VTRAKYFIRDE [GNAS_Y339]
0.358

Look at this sequence and give its reported SH2 binding enrichment. RRDRDYTNLPS [CSF1R_Y923_E920D]
1.45

Look at this sequence and give its reported SH2 binding enrichment. TVQVAYYTVMM [SPATA17_Y83_M86V]
0.925

Look at this sequence and give its reported SH2 binding enrichment. NRVEIYDKTVE [CYFIP1_Y108_E109D]
0.798

Look at this sequence and give its reported SH2 binding enrichment. LHSEAYLKFIE [PBRM1_Y1610_YF]
0.39

Look at this sequence and give its reported SH2 binding enrichment. AAQNCYKVTNA [TPI1_Y105_G110A]
0.608

Look at this sequence and give its reported SH2 binding enrichment. GEHSIYCTVNN [CD55_Y266]
0.48

Look at this sequence and give its reported SH2 binding enrichment. TSSAVYMNLAS [GATAD2B_Y317_I316V]
1.88

Look at this sequence and give its reported SH2 binding enrichment. NGPDVYVLPVT [AATK_Y93_L97V]
0.594

Look at this sequence and give its reported SH2 binding enrichment. DLVLQYLRVPL [F9_Y371_A366D]
0.776

Look at this sequence and give its reported SH2 binding enrichment. KFEDVYVRICL [B3GALNT1_Y269_G271R]
0.472

Look at this sequence and give its reported SH2 binding enrichment. RPSELYFSKIS [SMG1_Y2253_G2258S_YF]
0.758

Look at this sequence and give its reported SH2 binding enrichment. IQTDGYRAPEA [UHMK1_Y197]
0.505

Look at this sequence and give its reported SH2 binding enrichment. RAVLLYEYVGK [NATD1_Y45]
1.02

Look at this sequence and give its reported SH2 binding enrichment. FTNRSYDLDFD [MYC_Y12_N11S_YF]
2.61

Look at this sequence and give its reported SH2 binding enrichment. SEDSEYYRAFE [CASQ2_Y178_K180R]
0.47

Look at this sequence and give its reported SH2 binding enrichment. RPCVVYGGADI [DDX3X_Y301]
0.6
